Molecular target: T1, human IL-2Rγ endogenously expressed on NK-92 and Jurkat cells (human, UniProt P31785 23-369)
T1 construct: whole, on cells; on cells it stands with the other receptor subunits of the cell line; also called IL-2Rg; CD132
T1 sequence (looked up): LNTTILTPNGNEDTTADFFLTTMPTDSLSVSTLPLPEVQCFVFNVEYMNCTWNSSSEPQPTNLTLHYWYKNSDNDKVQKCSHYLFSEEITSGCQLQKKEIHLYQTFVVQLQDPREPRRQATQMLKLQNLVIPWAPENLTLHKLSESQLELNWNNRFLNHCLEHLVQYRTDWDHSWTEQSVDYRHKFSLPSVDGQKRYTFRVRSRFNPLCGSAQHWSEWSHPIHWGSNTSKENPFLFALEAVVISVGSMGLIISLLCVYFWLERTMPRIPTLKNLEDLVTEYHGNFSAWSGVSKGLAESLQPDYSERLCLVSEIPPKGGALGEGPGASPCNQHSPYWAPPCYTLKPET
Experiment: flow cytometry, 10 ug/ml antibody, NK-92 cells (endogenous human IL-2Rg)
recorded endpoint: Raw MFI
The number alone won't do; follow it with the unit.

{"columns": ["binder", "Raw MFI"],
 "data": [
  ["H4H12899P (antibody, human IgG4 S228P, kappa, V domains shown, fully human anti-IL2Rg antibody, human IgG4) VH: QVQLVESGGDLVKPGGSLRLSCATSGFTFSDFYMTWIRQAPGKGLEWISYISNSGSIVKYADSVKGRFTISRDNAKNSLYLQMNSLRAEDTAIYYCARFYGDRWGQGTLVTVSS VL: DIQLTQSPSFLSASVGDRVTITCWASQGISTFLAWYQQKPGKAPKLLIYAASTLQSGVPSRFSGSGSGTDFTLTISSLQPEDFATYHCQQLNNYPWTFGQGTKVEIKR", "2670 MFI"],
  ["H4H13541P (antibody, human IgG4 S228P, kappa, V domains shown, fully human anti-IL2Rg antibody, human IgG4) VH: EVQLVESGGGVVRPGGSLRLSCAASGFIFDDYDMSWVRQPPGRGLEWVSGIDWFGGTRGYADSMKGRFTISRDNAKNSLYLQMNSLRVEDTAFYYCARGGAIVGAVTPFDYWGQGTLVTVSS VL: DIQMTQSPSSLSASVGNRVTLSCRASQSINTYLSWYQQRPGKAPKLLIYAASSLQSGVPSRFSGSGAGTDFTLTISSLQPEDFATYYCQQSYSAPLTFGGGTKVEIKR", "7050 MFI"],
  ["H4H12889P (antibody, human IgG4 S228P, kappa, V domains shown, fully human anti-IL2Rg antibody, human IgG4; also called REGN7257) VH: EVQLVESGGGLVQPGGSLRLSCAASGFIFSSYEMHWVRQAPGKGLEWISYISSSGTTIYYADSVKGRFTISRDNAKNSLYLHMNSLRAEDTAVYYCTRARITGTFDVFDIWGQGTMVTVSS VL: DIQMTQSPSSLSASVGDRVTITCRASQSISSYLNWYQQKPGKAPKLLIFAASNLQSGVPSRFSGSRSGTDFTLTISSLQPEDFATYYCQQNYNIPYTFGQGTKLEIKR", "14100 MFI"],
  ["H4H12863P (antibody, human IgG4 S228P, kappa, V domains shown, fully human anti-IL2Rg antibody, human IgG4) VH: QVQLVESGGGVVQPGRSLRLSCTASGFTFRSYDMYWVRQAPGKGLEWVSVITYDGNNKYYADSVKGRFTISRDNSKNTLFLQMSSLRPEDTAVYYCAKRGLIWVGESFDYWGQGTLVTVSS VL: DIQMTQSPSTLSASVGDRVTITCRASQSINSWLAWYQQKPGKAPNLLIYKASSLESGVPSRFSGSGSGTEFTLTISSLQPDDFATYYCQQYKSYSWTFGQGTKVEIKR", "13000 MFI"],
  ["H4H13538P (antibody, human IgG4 S228P, kappa, V domains shown, fully human anti-IL2Rg antibody, human IgG4) VH: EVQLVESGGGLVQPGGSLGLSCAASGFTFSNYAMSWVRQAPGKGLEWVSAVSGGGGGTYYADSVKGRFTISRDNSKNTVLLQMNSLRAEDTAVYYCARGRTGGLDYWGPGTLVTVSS VL: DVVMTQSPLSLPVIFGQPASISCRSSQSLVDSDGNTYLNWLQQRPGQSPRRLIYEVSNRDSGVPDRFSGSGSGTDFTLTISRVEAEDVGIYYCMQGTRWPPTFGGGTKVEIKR", "235 MFI"]
]}

In: Please give the measured Raw MFI for this binder: H4H12884P (antibody, human IgG4 S228P, kappa, V domains shown, fully human anti-IL2Rg antibody, human IgG4) VH: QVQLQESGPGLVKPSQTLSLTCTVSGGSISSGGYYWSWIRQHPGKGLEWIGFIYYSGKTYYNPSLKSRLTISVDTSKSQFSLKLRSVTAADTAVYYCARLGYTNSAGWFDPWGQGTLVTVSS VL: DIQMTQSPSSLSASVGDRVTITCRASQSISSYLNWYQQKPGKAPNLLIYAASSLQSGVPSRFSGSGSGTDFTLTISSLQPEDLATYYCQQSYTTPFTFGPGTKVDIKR
Out: 13500 MFI

In: Please give the measured Raw MFI for this binder: H4H12900P (antibody, human IgG4 S228P, kappa, V domains shown, fully human anti-IL2Rg antibody, human IgG4) VH: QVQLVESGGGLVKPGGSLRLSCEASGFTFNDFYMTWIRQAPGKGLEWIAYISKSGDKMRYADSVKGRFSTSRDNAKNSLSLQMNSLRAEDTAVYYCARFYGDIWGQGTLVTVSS VL: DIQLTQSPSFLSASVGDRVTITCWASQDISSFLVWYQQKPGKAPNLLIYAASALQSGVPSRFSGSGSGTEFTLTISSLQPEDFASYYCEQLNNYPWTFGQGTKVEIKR
Out: 4200 MFI

In: Please give the measured Raw MFI for this binder: H4H12858P (antibody, human IgG4 S228P, kappa, V domains shown, fully human anti-IL2Rg antibody, human IgG4; also called REGN9433) VH: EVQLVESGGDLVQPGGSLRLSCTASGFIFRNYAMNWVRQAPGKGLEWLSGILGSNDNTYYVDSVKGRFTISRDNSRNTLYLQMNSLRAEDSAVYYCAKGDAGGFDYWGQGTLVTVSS VL: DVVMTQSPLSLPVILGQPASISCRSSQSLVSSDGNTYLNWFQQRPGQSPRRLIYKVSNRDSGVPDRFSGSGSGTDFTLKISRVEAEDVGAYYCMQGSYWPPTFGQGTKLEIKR
Out: 228 MFI

In: Please give the measured Raw MFI for this binder: H4H12871P (antibody, human IgG4 S228P, kappa, V domains shown, fully human anti-IL2Rg antibody, human IgG4; also called REGN9434) VH: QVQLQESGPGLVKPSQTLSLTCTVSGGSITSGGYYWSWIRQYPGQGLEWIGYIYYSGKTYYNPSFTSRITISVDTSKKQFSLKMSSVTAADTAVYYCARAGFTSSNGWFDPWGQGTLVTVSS VL: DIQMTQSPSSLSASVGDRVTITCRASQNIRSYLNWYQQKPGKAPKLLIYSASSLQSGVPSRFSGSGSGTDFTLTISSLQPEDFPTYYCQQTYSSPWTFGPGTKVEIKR
Out: 13700 MFI
